Test: protein stability index of a GFP-peptide fusion (yeast GPS) (PSI 1-4); higher = more stable; sorted into four equal gates, so the index is relative within each strain
Conditions: doa10∆
Listing: protein stability index of selected sequences
observed_property: protein stability index

biosequence="APSGIRMHLAPASKQGY [SSN2]" observed_property="protein stability index" value=2.24
biosequence="KDFIENVNNRFDNFLTE [BRN1]" observed_property="protein stability index" value=3.06
biosequence="QGIIYAKVNRPAKIVNF [RPN5]" observed_property="protein stability index" value=2.61
biosequence="LWSGKQILSVAIPNGIH [RPO21]" observed_property="protein stability index" value=1.57
biosequence="NDLEVGVATKDKFFTLS [SCL1]" observed_property="protein stability index" value=3.18
biosequence="LSLDSDVKFPSNTTTQI [SMC3]" observed_property="protein stability index" value=2.9
biosequence="VNHLLLFAREIAKSQDK [DPB4]" observed_property="protein stability index" value=2.06
biosequence="VLRIPEEYLDANVFRLE [MTW1]" observed_property="protein stability index" value=3.34

###

Experiment: protein stability index of a GFP-peptide fusion (yeast GPS) (PSI 1-4); higher = more stable; sorted into four equal gates, so the index is relative within each strain
Conditions: pdr5∆
observed_property: protein stability index

biosequence="LDKQIEELVEAIVLPMK [RPT5]" observed_property="protein stability index" value=3.02
biosequence="GVKDCQEGLITTTMLQL [SSN2]" observed_property="protein stability index" value=2.5
biosequence="GARPGRVARRNAARKAE [RPS9A]" observed_property="protein stability index" value=3.45
biosequence="AGETLILDGLTVRLVNL [SRB2]" observed_property="protein stability index" value=2.97
biosequence="KNKKIEVYTKTIEVLDE [POP7]" observed_property="protein stability index" value=2.78
biosequence="ITDKGTVDGRLYQLFKT [YJL039C/NUP192]" observed_property="protein stability index" value=3.46
biosequence="TIIFIDELDAIGTKRFD [RPT5]" observed_property="protein stability index" value=2.33
biosequence="LCEEYLVNNGQSDLEHD [RPN7]" observed_property="protein stability index" value=2.63
biosequence="ISLPKGKGIKLSIAEER [RPS4A]" observed_property="protein stability index" value=2.18
biosequence="NSDIANLRTQVTQQKRS [SMC1]" observed_property="protein stability index" value=3.1
biosequence="GKILTIKQQQQQQQQQN [YML103C/NUP188]" observed_property="protein stability index" value=3.13
biosequence="VDPFDSDEEESVLDEQE [SNU114]" observed_property="protein stability index" value=3.5
biosequence="MVLRKQKRYTVKKALAK [RPL14A]" observed_property="protein stability index" value=2.13
biosequence="INESAENFSNGISLVME [MED1]" observed_property="protein stability index" value=3.16

###

Experiment: protein stability index of a GFP-peptide fusion (yeast GPS) (PSI 1-4); higher = more stable; sorted into four equal gates, so the index is relative within each strain
Conditions: ubr1∆
Label label 1 for high-side protein stability index (at or above 3) and label 0 for low-side protein stability index (below it).

biosequence="KLIKFETRNEDDVVVLT [FAS1]" answer_label="label 1"
biosequence="EIVDTYQEDIFVSESPS [ISW2]" answer_label="label 0"
biosequence="NTLEEFEHGRTPAEMSR [FAS2]" answer_label="label 1"
biosequence="VTTNINWRSFNAKIIDA [SRP68]" answer_label="label 1"
biosequence="PENITKREASRGFFDIL [MCD1]" answer_label="label 1"
biosequence="MKLKLMIVYYKDAISFI [YCS4]" answer_label="label 0"
biosequence="FIYGMSAKDHPKVKEIK [PRP8]" answer_label="label 1"
biosequence="QNNSTGSSSIIYYDSYI [SSN2]" answer_label="label 0"
biosequence="YAKEDAFSYPRMYEEAS [RPN2]" answer_label="label 0"
biosequence="KKYLKKNQLRDWIRFVS [RPL22A]" answer_label="label 0"
biosequence="LRPGRIDRKVEFSLPDL [RPT1]" answer_label="label 1"
biosequence="EAEMAYVKAVSDKAQLN [SMC4]" answer_label="label 0"
biosequence="IADQDMEDEDMVDVIID [ESC2]" answer_label="label 1"
biosequence="SMTAVPKPLKFLRPTYP [RPN1]" answer_label="label 0"
biosequence="ALTDFERFQVMVLRKQK [RPL14A]" answer_label="label 0"
biosequence="TVQSWLCDLFVNGSITD [NUT1]" answer_label="label 0"
biosequence="TIIFIDELDAIGTKRFD [RPT5]" answer_label="label 0"
biosequence="SGNEMPPQDAEGWFYKR [RPS19A]" answer_label="label 1"
biosequence="GARFDDGAGGDNEVQRT [RPT1]" answer_label="label 1"
biosequence="CYPQFAERDSQGGFYKQ [UBP6]" answer_label="label 1"
biosequence="PLKTELEANGRSLEKVN [SSN2]" answer_label="label 1"
biosequence="FVIGVIIGTFSDSYKVS [RRP40]" answer_label="label 0"
biosequence="ELAGDEELEAEQIDVFS [PRP8]" answer_label="label 0"
biosequence="ATSTNPAKSASARGSYL [RPL17A]" answer_label="label 0"
biosequence="DSDELGGESMEGPKKCI [SNM1]" answer_label="label 1"
biosequence="EINLSKIFQTTPEKDLF [YCS4]" answer_label="label 0"
biosequence="NSPTSFFDGSASSTPIP [YOR098C/NUP1]" answer_label="label 0"
biosequence="VDQEMLYEIILAANYLN [SKP1]" answer_label="label 0"
